Test system: MOLT-4 leukemia
Assay: NCI-60 one-dose screen, 48 h (100 = growth as untreated, 0 = no growth, -100 = all killed)
Conditions: 10 µM unless noted
Compounds without any hit were thinned out: in the full panel of roughly 83,000, 20% have a hit.
Kindly supply the reported growth values for the records listed here.
Give bare numbers, in %.

compound: CCOC(=O)c1nc2c3ccccc3ccn2c1C(=O)OCC
growth [%]: 95.4
--
compound: COc1cccc(-c2nc3occn3c2-c2ccnc(NCCNS(=O)(=O)c3cccc4ccccc34)n2)c1
growth [%]: 97.4
--
compound: COc1cc(CC(=O)c2ccc(O)c(OC)c2)ccc1O
growth [%]: 80
--
compound: O=C(O)c1ccc(-c2nn(-c3ccc(C(F)(F)F)cc3)cc2CNc2ccc(Oc3ccccc3)cc2)cc1
growth [%]: 67.6

Now look at this entry.
Observed growth on MOLT-4 leukemia, entry O=[N+]([O-])CC(c1ccccc1F)c1c[nH]c2ccccc12 (stereo not given) , equals 59

====

System: MCF7 breast
Assay: NCI-60 one-dose screen, 48 h
Conditions: 10 µM unless noted
The panel holds about 83,000 compounds, 20% with a hit somewhere; the sample as a whole holds those more often. Calls of active or inactive are those of the source. The calls were made as follows: active = growth percent below 10; inactive = the rest.
Lab note: assign the record to one of YES = active, NO = inactive

compound: Cc1ccccc1NS(=O)(=O)c1cccc(C(=O)Nc2ccc(Br)cc2)c1
classification: NO
--
compound: CC1(C)CC(=O)C2=C(C1)N(c1ccc(F)cc1F)C(N)=C(C#N)C2c1cc(Br)ccc1F (centres undefined)
classification: NO
--
compound: Cc1nnc2c(Cc3ccccc3)nc3ccccc3n12
classification: NO
--
compound: Cc1ccc(C(=O)/C(=C\c2ccc([N+](=O)[O-])cc2)S(=O)Cc2ccc(Cl)cc2)cc1 (centres undefined)
classification: NO
--
compound: O=C(Cc1ccc(/C=C/C(=O)c2ncc[nH]2)cc1)Nc1ccc(Cl)cc1
classification: NO
--
compound: N#C/C(=C\c1ccc(C(F)(F)F)cc1)c1cc2ccccc2[nH]1
classification: NO

**Q:** Status in this test for COc1cccc(-c2cc(C(=O)Nc3ccc(/C=C/c4ccc(OC5CCN(C)CC5)cc4)cc3)ccc2OC)c1 ?
**A:** YES

**Q:** Status in this test for COc1cc2oc(-c3cccc(C(=O)Nc4ccccc4)c3)cc(=O)c2c(O)c1OC ?
**A:** NO

**Q:** Status in this test for O=C1/C=C/[C@@H](O)[C@@H]2C[C@@H](O)C[C@H]2/C=C/CCC[C@H](CCc2ccc3ncccc3c2)O1 ?
**A:** YES

====

Tested on: EKVX NSCLC
Test: NCI-60 one-dose screen, 48 h (100 = growth as untreated, 0 = no growth, -100 = all killed)
Details: 10 µM unless noted
Compounds without any hit were thinned out: in the full panel of roughly 83,000, 20% have a hit.
quantity-measured: growth (%)
Give bare numbers, in %.

Consider the following illustrative entries.
molecule: O=C(/C=C(/C=C/c1coc2ccccc12)OB(F)F)/C=C/c1coc2ccccc12
system-under-test: EKVX NSCLC
measurement-units: %
val: 108
//
molecule: COc1cc2nc(-c3ccc(C(F)(F)F)cc3)cc(OCCN3CCCCC3)c2cc1OC
system-under-test: EKVX NSCLC
measurement-units: %
val: 62.4
//
molecule: O=S(=O)(NCCNc1nccc(-c2c(-c3cccc(F)c3)nc3sccn23)n1)c1ccc(Br)cc1
system-under-test: EKVX NSCLC
measurement-units: %
val: 59.5

Hello, I would appreciate it if you could give growth for each entry below.
1. CCOC(=O)c1cc(C#N)n2ccc3ccccc3c12
2. COc1ccc2c(c1)oc1c(C)c3c(c(C)c12)C(=O)N(N)C3=O

**A:**
[90.9, 49.1]

Hello, I would appreciate it if you could give growth for each entry below.
1. O=C(CCN1CCCC1)Nc1ccc2c(Nc3ccc(F)cc3)c3ccccc3nc2c1
2. COc1ccc2[nH]c(=O)c(CN3CCN(c4nccc(-c5ccc(Cl)cc5)n4)CC3)cc2c1
3. Cc1ccc(-n2nc3c(c(C#N)c2=O)CC(c2ccccc2[N+](=O)[O-])C([N+](=O)[O-])=C3O)cc1 (centres undefined)

**A:**
1. 47.5
2. 96.4
3. 77.1

Record COc1ccc2nc(-c3ccc(-c4noc(-c5cc(OC)c(OC)c(OC)c5)n4)cc3)[nH]c2c1 , field growth: 91.9

Source of measurements: PubChem BioAssay (NCI)
